Every entry's value here was drawn from ChEMBL document CHEMBL1201862.

System: OVCAR-4
assay-text: NCI tumour cell line growth inhibition, 48 h
Active and inactive are the calls of the source. Cut-off read from the data, not from the text of the source: active = GI50 up to about 1.1 µM and inactive = higher.
Your answer must be one of the following: active, inactive

c1ccc2c(NCCCCCCCCNc3cccc4ccccc34)cccc2c1 :: inactive
c1ccc2c(CC3NCCN3)cccc2c1 :: inactive
C=C[C@@]1(C)CC2(C=C(CO)C(O)O2)Oc2c1c(=O)oc1cccc(C)c21 (stereo partly specified) :: inactive
CC(C)/C(Cl)=N/OC(=O)Nc1cccc(C(F)(F)F)c1 :: inactive
O=[N+]([O-])c1ccc2c(c1)nc(Cc1ccc(Cl)cc1)n2C[C@@H]1CCCN2CCCCC12 (stereo partly specified) :: inactive

Q: // return assay outcome for COP(=O)(OC)C(O)CC(C)C (stereo unspecified)
Result: inactive

Q: Just curious, what result did FC1C2=C(SC1(F)F)C1CCC2C1 (stereo unspecified) get here?
Result: inactive

Q: Per the records of this test, what outcome belongs to "CC(=O)Oc1ccccc1C(=O)C1c2cccc(O)c2C(=O)c2c(O)cccc21" ?
Result: active

Q: Could you please tell me the result logged for CC(=O)O[C@@H]1CC[C@@]2(C)C(CC[C@H]3[C@@H]4CC[C@H]([C@H](C)CCc5nc6cc(C)ccc6[nH]5)[C@@]4(C)CC[C@@H]32)C1 (stereo partly specified) in this assay?
Result: inactive

Q: Given "CC(C)(C)NNC(=O)/C(=C/c1ccc([N+](=O)[O-])cc1)NC(=O)c1ccccc1" , state the outcome it received in this test.
Result: inactive

Q: Identify the outcome logged in this assay for the compound shown: "c1ccc2c(c1)Sc1nccc3ccnc-2c13"
Result: inactive

* * *

Tested on: K562
assay-text: NCI tumour cell line growth inhibition, 48 h
Calls of active or inactive are those of the source. Rule as the data show it: active = GI50 up to about 1.1 µM and inactive = higher.
Give your call using only these classes: active, inactive

// known answers, use as guide
COc1cc2nn(-c3ccccc3)nc2c2nonc12 :: inactive
O=C1O/C(=C\c2ccc(O)cc2)C(c2ccc(O)c(Cl)c2)=C1Cl :: inactive
CCN(CC)CCOc1ccccc1/C=C/c1noc2ccccc12 :: inactive
C[C@@H]1OC(=O)N2CCCC(=C3SCCCS3)C12 (some centres undefined) :: inactive

Q: What is the recorded call for this compound in the test? CCCC(=O)OCC1OC(n2cc(F)c(=O)[nH]c2=O)C(F)C1OC(=O)CCC (centres undefined)
Result: inactive

Q: Given CCCC(O)c1cn(-c2cccc(S(=O)(=O)O)c2)nn1 (centres undefined) , state the outcome it received in this test.
Result: inactive

Q: Record request — test call for "Cc1cc2nc(C#N)c(N3CCN(c4ccc([N+](=O)[O-])cc4)CC3)nc2cc1C"
Result: inactive

Q: Kindly provide the recorded test outcome for the following compound: "COc1ccc(/C=N/NC(=S)Nc2cc(C)ccc2OC)cc1"
Result: active

Q: // param item: Cc1cccc2c1CCC21OC(=O)c2c1ccc1ccccc21 (centres undefined) ; yields the recorded call
Result: inactive

Q: Can you look up the reported call for COC(=O)[C@]1(c2cc3ccccc3[nH]2)CC2CNC1C1OC(C)(C)OC21 (some centres undefined) for me?
Result: inactive

* * *

Each entry below carries its reported GI50.
System: CAKI-1
assay-text: NCI tumour cell line growth inhibition, 48 h
Active and inactive are the calls of the source. Cut-off read from the data, not from the text of the source: active = GI50 up to about 1.1 µM and inactive = higher.

# count of solved cases: 4
C(=N\Nc1ccccc1)/c1nc2ccccc2nc1/C=N/Nc1ccccc1 :: 7.71 µM (inactive)
C=Cc1c(-c2ccccc2)cnc2[nH]c3ccccc3c12 :: > 50 µM (inactive)
CC(=O)c1c[nH]cc1CO :: > 10 µM (inactive)
O=C1OC(c2ccc(O)c(Cl)c2)(c2ccc(O)c(Cl)c2)c2ccc(Br)c3cccc1c23.O=C1OC(c2ccc(O)c(Cl)c2)(c2ccc(O)c(Cl)c2)c2cccc3c(Br)ccc1c23 :: 14.1 µM (inactive)

Q: Entry CC(C)(C)OC(=O)NCCCCC(N)C(N)=O (stereo unspecified) : reported GI50 = ?
Result: > 100 µM (inactive)

Q: So what's the measured GI50 for this one? "CCOC(=O)c1sc2[n+](c1C)C(=O)/C(=C/c1ccc([N+](=O)[O-])cc1)S2"
Result: 15.1 µM (inactive)

Q: Which GI50 is listed for "Cc1ccc(Cc2n[nH]c(=O)n2-c2ccccc2)cc1" ?
Result: > 100 µM (inactive)

Q: Looking for the measured GI50 of "O=[N+]([O-])c1nccn1CCCNCCCn1ccnc1[N+](=O)[O-]" , can you help?
Result: > 100 µM (inactive)

Q: Any idea what its GI50 is? The compound is CCCC(=O)OCC1OC(n2cc(F)c(=O)[nH]c2=O)C(F)C1OC(=O)CCC (stereo unspecified)
Result: 23.1 µM (inactive)

Q: Look up GI50: "CC(C)/C(Cl)=N\OC(=O)Nc1cccc(F)c1"
Result: 16 µM (inactive)

Q: Given the entry "O=C(O)/C(Cl)=C(\Cl)Nc1cccc(C(F)(F)F)c1" , report its measured GI50.
Result: > 100 µM (inactive)
